Carbonic anhydrase 2 (Homo sapiens) Ki, compiled from various sources.
readoutLabel: Ki (nM)

compound=COc1cc(/C=C/C(=O)OCCCCCCCN(C)CCOC(=O)c2ccc(S(N)(=O)=O)cc2)cc(OC)c1OC readoutlabel=Ki relation== measured=48.9
compound=CC[C@@H](C)[C@@H](NC(=O)OC(C)(C)C)C(=O)NCc1ccc(S(N)(=O)=O)cc1 readoutlabel=Ki relation== measured=0.8
compound=C[C@@H](NC(=O)OC(C)(C)C)C(=O)NCc1ccc(S(N)(=O)=O)cc1 readoutlabel=Ki relation== measured=6.8
compound="COc1ccc(C2=NN(c3ccc(S(N)(=O)=O)cc3)C(c3ccc4c(c3)OCO4)C2)c(OC)c1 (centres unmarked)" readoutlabel=Ki relation== measured=7800
compound=CN(CCCCCCOC(=O)c1c2ccccc2cc2ccccc12)CCCOC(=O)COc1ccc2ccc(=O)oc2c1 readoutlabel=Ki relation=> measured=10000
compound=O=C(O)COc1ccc2ccc(=O)oc2c1 readoutlabel=Ki relation=> measured=10000
compound=NS(=O)(=O)c1ccc2c(c1)CCN2C(=O)c1ccc(Cl)c(Cl)c1 readoutlabel=Ki relation== measured=54
compound=NS(=O)(=O)c1ccccc1NC(=O)c1ccc2cc[nH]c2c1 readoutlabel=Ki relation== measured=670

* * *

Carbonic anhydrase 2 (Homo sapiens, UniProt P00918) Ki, compiled from various sources.
readoutLabel: Ki (µM)

testsmiles=COc1cccc(NC(=O)NCc2cn(CCCS(N)(=O)=O)nn2)c1 readoutlabel=Ki measured=0.937
testsmiles=NS(=O)(=O)c1ccc(NC(=S)NC(=O)c2ccc(Cl)c(Cl)c2)cc1 readoutlabel=Ki measured=0.09
testsmiles=NS(=O)(=O)c1ccc(CCN2C(=O)/C(=C/c3ccc(F)cc3)C=C2c2ccc(Cl)cc2)cc1 readoutlabel=Ki measured=0.466
testsmiles=NS(=O)(=O)c1ccc(CCN2C(=O)/C(=C/c3ccc(Br)cc3)C=C2c2ccccc2)cc1 readoutlabel=Ki measured=1.43

* * *

Carbonic anhydrase 2 (Homo sapiens, UniProt P00918) Ki, compiled from various sources.
readoutLabel: Ki

compound=O=C(COc1ccc2oc(=O)ccc2c1)NCc1ccc(F)cc1 systemtested="Carbonic anhydrase 2 (Homo sapiens, UniProt P00918)" measured="> 10 µM"
compound=CCc1ccc(C2=C/C(=C\c3ccc(Cl)cc3)C(=O)N2CCc2ccc(S(N)(=O)=O)cc2)cc1 systemtested="Carbonic anhydrase 2 (Homo sapiens, UniProt P00918)" measured="1.62 µM"
compound=O=C(C=Cc1ccc(OCc2ccccc2)cc1)c1ccc2[nH]c(=O)oc2c1 systemtested="Carbonic anhydrase 2 (Homo sapiens, UniProt P00918)" measured="38 µM"
compound="Cc1ccc(C2=NN(c3ccc(S(N)(=O)=O)cc3)C(c3ccc(O)cc3)C2)cc1 (stereo not shown)" systemtested="Carbonic anhydrase 2 (Homo sapiens, UniProt P00918)" measured="0.00748 µM"

* * *

Carbonic anhydrase 2 (Homo sapiens, UniProt P00918) Ki, compiled from various sources.
readoutLabel: Ki

molecule=O=c1ccc2cc(-n3cc(CNc4ccccc4F)nn3)ccc2o1 measured="> 50 µM"
molecule=Cc1cc(=O)oc2c(CN3CCN(c4ccc(Br)cc4)CC3)c(O)ccc12 measured="> 10 µM"
molecule=O=c1ccc2cc(-n3cc(CNc4ccc(Oc5ccccc5)cc4)nn3)ccc2o1 measured="> 50 µM"
molecule=CC(C)C(=O)Nc1cccc(C(=O)NC(=S)Nc2ccc(S(N)(=O)=O)cc2)c1 measured="0.0021 µM"
molecule=NS(=O)(=O)CCCCn1cc(CNC(=O)Nc2ccc(C(F)(F)F)cc2)nn1 measured="0.879 µM"
molecule=Cc1cc(C)c(NCc2cn(-c3ccc4oc(=O)ccc4c3)nn2)c(C)c1 measured="> 50 µM"
molecule=CC(C)c1ccc(C=CC(=O)c2ccc3[nH]c(=O)oc3c2)cc1 measured="33.3 µM"
molecule=CCOc1ccc2nc(NC(=O)CNC(=O)OCc3ccccc3)sc2c1 measured="82.3 µM"
molecule=COc1cc(/C=C/C(=O)OCCCN(CCCCCCCOC(=O)c2c3ccccc3cc3ccccc23)CCCOc2ccc3ccc(=O)oc3c2)cc(OC)c1OC measured="> 10 µM"
molecule="NS(=O)(=O)c1ccc(N2N=C(c3ccccc3)CC2c2ccc3c(c2)OCO3)cc1 (stereo not shown)" measured="8.9 µM"
molecule=Cc1cccc(NCc2cn(-c3ccc4oc(=O)ccc4c3)nn2)c1 measured="> 50 µM"
molecule=CCOC(=O)c1ccc(NC(=S)NC(=O)c2ccc(Cl)cc2)cc1 measured="> 100 µM"
molecule=COc1ccc(C(=O)NCCc2ccc(S(N)(=O)=O)cc2)cc1 measured="0.02 µM"
molecule=Oc1ccc(/C=C/c2ccccc2)cc1Cl measured="35.8 µM"
molecule=CCn1c2ccc(F)cc2c2nnc(SCc3cn(-c4ccc(S(N)(=O)=O)cc4)nn3)nc21 measured="0.0639 µM"
molecule=NS(=O)(=O)c1ccc(NC(=S)NC(=O)c2ccc(Cl)cc2)cc1 measured="0.0581 µM"
molecule=Cn1c(C(=O)Nc2ccc(S(N)(=O)=O)cc2)cc2occc21 measured="0.0084 µM"
molecule=CN1CCN(NC(=S)NC(=O)c2cc3ccccc3oc2=O)CC1 measured="> 10 µM"
molecule=COc1cc(C(=O)OCCCN(CCCCCCCOC(=O)c2c3ccccc3cc3ccccc23)CCCOc2ccc3ccc(=O)oc3c2)cc(OC)c1OC measured="> 10 µM"
molecule=COc1cccc(C(=O)N2CCc3cc(S(N)(=O)=O)ccc32)c1 measured="0.0092 µM"
molecule=NC1=NC2(CCCCC2)N(c2ccc(S(=O)(=O)Nc3nccs3)cc2)C(N)=N1 measured="> 10 µM"
molecule=NS(=O)(=O)c1ccc(O)c(NC(=O)CCc2c[nH]c3ccccc23)c1 measured="0.0073 µM"
molecule=Cc1cc(=O)oc2c(CN3CCN(c4ccccc4F)CC3)c(O)ccc12 measured="> 10 µM"
molecule=CC(C)n1c2ccccc2c2nnc(SCc3cn(-c4ccc(S(N)(=O)=O)cc4)nn3)nc21 measured="0.0209 µM"
molecule="CC1CCC2(CC1)N=C(N)N=C(N)N2c1ccc(S(N)(=O)=O)cc1 (stereo not shown)" measured="0.179 µM"
molecule=Cc1cc(=O)oc2c(CN3CCN(Cc4c(O)ccc5c(C)cc(=O)oc45)CC3)c(O)ccc12 measured="> 10 µM"
molecule=Cc1ccc2nc(NC(=O)CNC(=O)OCC3c4ccccc4-c4ccccc43)sc2c1 measured="> 100 µM"
molecule=O=C(OCCCCCCN(CCCOC(=O)c1c2ccccc2cc2ccccc12)CCCOc1ccc2ccc(=O)oc2c1)c1c2ccccc2cc2ccccc12 measured="> 10 µM"
molecule=COc1cc(/C=C/C(=O)OCCCCCCCN(CCCOC(=O)c2cc(OC)c(OC)c(OC)c2)CCCOc2ccc3ccc(=O)oc3c2)cc(OC)c1OC measured="> 10 µM"
molecule=NC1=NC2(CCCC2)NC(Nc2ccc(S(N)(=O)=O)cc2)=N1 measured="3.62 µM"
molecule=COc1cc(/C=C/C(=O)OCCCN(CCCCCCCOC(=O)c2cc(OC)c(OC)c(OC)c2)CCCOc2ccc3ccc(=O)oc3c2)cc(OC)c1OC measured="> 10 µM"
molecule="NS(=O)(=O)c1ccc(N2N=C(c3ccc(Br)cc3)CC2c2ccc(O)cc2)cc1 (stereo not shown)" measured="0.00456 µM"
molecule=O=c1ccc2cc(-n3cc(CNc4ccc(Br)cc4)nn3)ccc2o1 measured="> 50 µM"
molecule=COc1cccc(OCc2cn(CCCCS(N)(=O)=O)nn2)c1 measured="5.97 µM"
